- studySystem: NL20 human bronchial epithelial cells expressing human Z-AAT (Homo sapiens, UniProt P01009, E366K)
- Construct: expressed in transfected cells; host or cells: NL20 human bronchial epithelial cells (NL20-SI line, doxycycline added)
- Sequence (P01009 25-418 E366K): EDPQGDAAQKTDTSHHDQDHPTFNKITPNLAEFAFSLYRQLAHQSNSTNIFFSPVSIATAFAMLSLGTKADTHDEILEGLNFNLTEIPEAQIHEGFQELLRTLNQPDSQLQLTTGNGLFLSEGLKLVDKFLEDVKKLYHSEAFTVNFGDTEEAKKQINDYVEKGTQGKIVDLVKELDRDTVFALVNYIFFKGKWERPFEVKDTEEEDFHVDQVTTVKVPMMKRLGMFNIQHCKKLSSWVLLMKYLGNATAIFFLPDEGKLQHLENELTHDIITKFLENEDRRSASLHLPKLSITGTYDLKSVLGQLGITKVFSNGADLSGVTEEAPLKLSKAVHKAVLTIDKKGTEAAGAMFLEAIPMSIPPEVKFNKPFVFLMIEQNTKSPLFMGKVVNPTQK
- experimentSummary: AAT Function Assay (MSD Assay NL20-SI Cell Line)
- Format: cell-based
- recordedConditions: functionally active AAT (AAT-hNE complex) in supernatant of NL20 cells expressing human Z-AAT; read-out: NL20 Func. (EC50)
measurementKind: EC50

Sample records with EC50:
O=C(O)C1CC2(C1)CC(c1c(C3CCOCC3)n(-c3ccc(F)c(F)c3)c3cc4cn[nH]c4cc13)C2 (single isomer, unassigned) [Compound 68] :: < 1.16 µM
COCC(C)(C)c1c(CCCNC(=O)OCc2ccccc2)c2cc3[nH]ncc3cc2n1-c1ccc(F)cc1 :: > 3 µM
[2H]C([2H])(C(=O)O)C([2H])([2H])c1c(C(C)C)n(-c2ccc(F)cc2)c2cc3cn[nH]c3cc12 :: < 1.16 µM
Cc1cc(-n2c(C3CCOCC3)c(C3CC4(CC(C(=O)O)C4)C3)c3cc4[nH]nc(C)c4cc32)ccc1F (racemic) [Compound 126] :: 1.16 to 3 µM

input: Using the record for C[C@]1(C(=O)O)C[C@H](c2c(C3CCOCC3)n(-c3ccc(F)cc3)c3cc4cn[nH]c4cc32)C1 (single isomer, unassigned) , report its EC50.
output: 1.16 to 3 µM

input: Using the record for Cc1cc(-n2c(C(C)C)c(C3CC4(CC(C(=O)O)C4)C3)c3cc4[nH]nc(C)c4cc32)ccc1F (single isomer, unassigned) [Compound 57] , report its EC50.
output: 1.16 to 3 µM

input: Using the record for `O=C(O)[C@H]1C[C@@H](Cc2c(C3CCOCC3)n(-c3ccc(F)cc3)c3cc4cn[nH]c4cc23)C1` , report its EC50.
output: 1.16 to 3 µM

input: Using the record for `Cc1cc(-n2c(C(C)C)c(I)c3cc4[nH]ncc4cc32)ccc1F` , report its EC50.
output: 1.16 to 3 µM

input: Using the record for `O=C(O)c1ccc(C#Cc2c(C3CCOCC3)n(-c3ccc(F)cc3)c3cc4cn[nH]c4cc23)cc1` , report its EC50.
output: < 1.16 µM

input: Using the record for CC(C)c1c(CCC(=O)OC2O[C@H](C(=O)O)[C@@H](O)[C@H](O)[C@H]2O)c2cc3[nH]ncc3cc2n1-c1ccc(F)cc1 (stereo in doubt) , report its EC50.
output: > 3 µM

input: Using the record for `CC(C)c1c(C2CNC2)c2cc3[nH]ncc3cc2n1-c1ccc(F)cc1` , report its EC50.
output: > 3 µM

Values were extracted from patent US11623924B2.
